# TGT: GST-Ap-NF-kB RHD (Exaiptasia pallida (Aiptasia), UniProt A0A913YAJ5 2-422)
# Sequence: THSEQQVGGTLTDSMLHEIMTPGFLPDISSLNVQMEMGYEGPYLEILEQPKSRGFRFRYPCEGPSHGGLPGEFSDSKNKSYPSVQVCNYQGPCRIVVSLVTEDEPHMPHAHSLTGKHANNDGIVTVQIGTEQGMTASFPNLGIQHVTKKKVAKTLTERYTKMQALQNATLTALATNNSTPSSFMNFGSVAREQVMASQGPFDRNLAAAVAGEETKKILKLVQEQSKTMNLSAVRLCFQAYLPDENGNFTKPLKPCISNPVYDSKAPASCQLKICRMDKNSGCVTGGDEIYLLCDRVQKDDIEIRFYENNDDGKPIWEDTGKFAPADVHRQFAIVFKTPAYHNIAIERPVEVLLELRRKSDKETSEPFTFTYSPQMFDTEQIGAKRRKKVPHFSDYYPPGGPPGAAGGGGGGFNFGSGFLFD
# ASSAY_OVERVIEW: protein-binding microarray (PBM); PBM: ~300 nM protein, 6 mM HEPES pH 7.8, 80 mM KCl, 0.5 mM EDTA, 0.5 mM EGTA, 6% glycerol, 35 ng/ul poly-dIdC, 1% milk, 1 h, room temperature; high values mean tight binding
# CONDITION_SET: dsDNA, one strand shown
Classify by binding signal. Ranges: group 1: < 3 z-score; group 2: ≥ 3 z-score and < 6 z-score; group 3: ≥ 6 z-score

Examples with answers:
INSERT INTO assay_data (sequence_code, tgt, assigned_label) VALUES
  ('CCGATTAACATCACACTTTTCCCTGATGTTAATCGGGTCTTGATTCGCTTGACGCTGCTG', 'GST-Ap-NF-kB RHD (Exaiptasia pallida (Aiptasia), UniProt A0A913YAJ5 2-422)', 'group 2'),
  ('CCGATTAACATCAAACTTCCCCATGATGTTAATCGGGTCTTGATTCGCTTGACGCTGCTG', 'GST-Ap-NF-kB RHD (Exaiptasia pallida (Aiptasia), UniProt A0A913YAJ5 2-422)', 'group 3'),
  ('CCGATTAACATCAAAGTTCCCCCTGATGTTAATCGGGTCTTGATTCGCTTGACGCTGCTG', 'GST-Ap-NF-kB RHD (Exaiptasia pallida (Aiptasia), UniProt A0A913YAJ5 2-422)', 'group 3'),
  ('CCGATTAACATCACCGGAATTCCTGATGTTAATCGGGTCTTGATTCGCTTGACGCTGCTG', 'GST-Ap-NF-kB RHD (Exaiptasia pallida (Aiptasia), UniProt A0A913YAJ5 2-422)', 'group 1'),
  ('CCGATTAACATCAGGACAATCCCTGATGTTAATCGGGTCTTGATTCGCTTGACGCTGCTG', 'GST-Ap-NF-kB RHD (Exaiptasia pallida (Aiptasia), UniProt A0A913YAJ5 2-422)', 'group 1');

Asked: Each sequence maps to one class by binding signal. Which class for CCGATTAACATCAGGGGGAAGCATGATGTTAATCGGGTCTTGATTCGCTTGACGCTGCTG ?
Given back: group 2

###

# TGT: GST-Ap-NF-kB RHD (Exaiptasia pallida (Aiptasia), UniProt A0A913YAJ5 2-422)
# Sequence: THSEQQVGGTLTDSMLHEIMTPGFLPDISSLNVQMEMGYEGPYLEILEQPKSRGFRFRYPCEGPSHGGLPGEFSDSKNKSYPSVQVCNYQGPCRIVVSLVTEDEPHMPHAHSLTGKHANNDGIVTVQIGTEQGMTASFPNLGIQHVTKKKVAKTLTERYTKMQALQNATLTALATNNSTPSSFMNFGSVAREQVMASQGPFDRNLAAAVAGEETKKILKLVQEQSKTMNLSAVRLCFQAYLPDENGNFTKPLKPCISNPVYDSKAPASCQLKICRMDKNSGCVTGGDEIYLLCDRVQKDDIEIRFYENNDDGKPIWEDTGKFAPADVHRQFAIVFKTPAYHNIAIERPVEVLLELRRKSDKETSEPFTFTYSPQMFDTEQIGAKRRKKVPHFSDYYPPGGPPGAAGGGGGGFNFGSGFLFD
# ASSAY_OVERVIEW: protein-binding microarray (PBM); PBM: ~300 nM protein, 6 mM HEPES pH 7.8, 80 mM KCl, 0.5 mM EDTA, 0.5 mM EGTA, 6% glycerol, 35 ng/ul poly-dIdC, 1% milk, 1 h, room temperature; high values mean tight binding
# CONDITION_SET: dsDNA, one strand shown
# if measured binding signal < 4 z-score: 1.0  # else: 0.0

INSERT INTO assay_data (sequence_code, assigned_label) VALUES
  ('CCGATTAACATCAAAGGACCCCCTGATGTTAATCGGGTCTTGATTCGCTTGACGCTGCTG', 0.0);

Asked: Please let me know if CCGATTAACATCAGGGAATACCCTGATGTTAATCGGGTCTTGATTCGCTTGACGCTGCTG shows binding signal below 4 z-score.
Given back: 0.0

Asked: Please let me know if CCGATTAACATCACCCACTTCCCTGATGTTAATCGGGTCTTGATTCGCTTGACGCTGCTG shows binding signal below 4 z-score.
Given back: 1.0

Asked: Please let me know if CCGATTAACATCAAGGGGGTAAATGATGTTAATCGGGTCTTGATTCGCTTGACGCTGCTG shows binding signal below 4 z-score.
Given back: 0.0

Asked: Please let me know if CCGATTAACATCAGGGATTGCCCTGATGTTAATCGGGTCTTGATTCGCTTGACGCTGCTG shows binding signal below 4 z-score.
Given back: 0.0

Asked: Please let me know if CCGATTAACATCAGGGATCACCCTGATGTTAATCGGGTCTTGATTCGCTTGACGCTGCTG shows binding signal below 4 z-score.
Given back: 1.0

Asked: Please let me know if CCGATTAACATCAGTATGGGAAATGATGTTAATCGGGTCTTGATTCGCTTGACGCTGCTG shows binding signal below 4 z-score.
Given back: 1.0

Asked: Please let me know if CCGATTAACATCAGAAACCCCCCTGATGTTAATCGGGTCTTGATTCGCTTGACGCTGCTG shows binding signal below 4 z-score.
Given back: 0.0

###

# TGT: GST-Co-NF-kB (Capsaspora owczarzaki, UniProt F1ARL5 200-546)
# Sequence: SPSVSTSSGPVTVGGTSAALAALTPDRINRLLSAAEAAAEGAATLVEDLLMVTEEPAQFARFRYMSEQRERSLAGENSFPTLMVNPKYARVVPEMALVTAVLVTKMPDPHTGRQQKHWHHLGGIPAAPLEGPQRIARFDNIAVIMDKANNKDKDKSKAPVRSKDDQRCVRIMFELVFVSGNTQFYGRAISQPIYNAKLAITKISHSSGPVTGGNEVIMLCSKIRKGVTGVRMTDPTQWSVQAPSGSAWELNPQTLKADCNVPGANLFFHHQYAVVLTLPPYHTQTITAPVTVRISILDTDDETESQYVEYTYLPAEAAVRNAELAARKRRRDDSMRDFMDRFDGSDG
# ASSAY_OVERVIEW: protein-binding microarray (PBM); PBM: ~300 nM protein, 6 mM HEPES pH 7.8, 80 mM KCl, 0.5 mM EDTA, 0.5 mM EGTA, 6% glycerol, 35 ng/ul poly-dIdC, 1% milk, 1 h, room temperature; Ap Aiptasia and Nv Nematostella (sea anemones) / Co Capsaspora / Aq Amphimedon (sponge) / Dm Drosophila / Hu human; RHD is the Rel homology domain; high values mean tight binding
# CONDITION_SET: dsDNA, one strand shown
PROPERTY: binding signal (z-score)
Kindly provide the numeric value in z-score only, without the unit symbol.

INSERT INTO measurements (sequence_code, tgt, endpoint_result) VALUES
  ('CCGATTAACATCAACCATGGGAATGATGTTAATCGGGTCTTGATTCGCTTGACGCTGCTG', 'GST-Co-NF-kB (Capsaspora owczarzaki, UniProt F1ARL5 200-546)', 1.67),
  ('CCGATTAACATCACCCAGGGAAATGATGTTAATCGGGTCTTGATTCGCTTGACGCTGCTG', 'GST-Co-NF-kB (Capsaspora owczarzaki, UniProt F1ARL5 200-546)', 2.73),
  ('CCGATTAACATCAGGGAATTACATGATGTTAATCGGGTCTTGATTCGCTTGACGCTGCTG', 'GST-Co-NF-kB (Capsaspora owczarzaki, UniProt F1ARL5 200-546)', 4.3),
  ('CCGATTAACATCAAAAACTTCCCTGATGTTAATCGGGTCTTGATTCGCTTGACGCTGCTG', 'GST-Co-NF-kB (Capsaspora owczarzaki, UniProt F1ARL5 200-546)', 3.89),
  ('CCGATTAACATCACCGTGGGAAATGATGTTAATCGGGTCTTGATTCGCTTGACGCTGCTG', 'GST-Co-NF-kB (Capsaspora owczarzaki, UniProt F1ARL5 200-546)', 3.18);

Asked: Notebook: pull reported binding signal for GST-Co-NF-kB (Capsaspora owczarzaki, UniProt F1ARL5 200-546), entry CCGATTAACATCACAAAACTCCCTGATGTTAATCGGGTCTTGATTCGCTTGACGCTGCTG
Given back: 2.13

Asked: Notebook: pull reported binding signal for GST-Co-NF-kB (Capsaspora owczarzaki, UniProt F1ARL5 200-546), entry CCGATTAACATCACCAAATTCCCTGATGTTAATCGGGTCTTGATTCGCTTGACGCTGCTG
Given back: 3.82

Asked: Notebook: pull reported binding signal for GST-Co-NF-kB (Capsaspora owczarzaki, UniProt F1ARL5 200-546), entry CCGATTAACATCACGGGAACACCTGATGTTAATCGGGTCTTGATTCGCTTGACGCTGCTG
Given back: 1.95

Asked: Notebook: pull reported binding signal for GST-Co-NF-kB (Capsaspora owczarzaki, UniProt F1ARL5 200-546), entry CCGATTAACATCAGGGGAAAGCATGATGTTAATCGGGTCTTGATTCGCTTGACGCTGCTG
Given back: 6.79
